test system: grass carp pituitary cells; assay: Receptor antagonist / pathway inhibitor co-treatment on HK2-induced mRNA expression in grass carp pituitary cells; assay type: cell-based, grass carp (Ctenopharyngodon idellus); details: inhibitor 10 μM with HK2 1 μM, 24 h co-treatment
ENDPOINT NAME: effect on HK2-induced CART2 mRNA expression

> print(dat)
                                   compound                 result
1  COc1ccc2c(c1)CC[C@@H]1[C@@H]2CC[C@]2(C)[C@@H](NCCCCCCN3C(=O)C=CC3=O)CC[C@@H]12  effective in blocking
2  O=S(=O)(NCCNC/C=C/c1ccc(Br)cc1)c1cccc2cnccc12              abolished
3  Cl.c1ccc(C2CCCC2NC2=NCCCCCCCCCCC2)cc1 (centres unmarked) [MDL12330A]              abolished
4                   NCCOB(c1ccccc1)c1ccccc1  effective in blocking

Now consider a different compound.
// effect on HK2-induced CART2 mRNA expression lookup, key: CN(C)CCCn1cc(C2=C(c3c[nH]c4ccccc34)C(=O)NC2=O)c2ccccc21 [GF109203X]
effective in blocking
